biological target: T1, Recombinant human full length HGF (human, UniProt P14210 32-728); assay: SPR; Biacore X100; HGF immobilised on a CM5 chip by amine coupling (2000 RU); peptide 0 to 100 μM in HBS-EP pH 7.4, 30 μL/min, 2 minutes injection, 8 minutes dissociation; details: both partners purified
T1 construct: also called hepatocyte growth factor; source: bought: Sino Biological Inc
T1 sequence (P14210 32-728): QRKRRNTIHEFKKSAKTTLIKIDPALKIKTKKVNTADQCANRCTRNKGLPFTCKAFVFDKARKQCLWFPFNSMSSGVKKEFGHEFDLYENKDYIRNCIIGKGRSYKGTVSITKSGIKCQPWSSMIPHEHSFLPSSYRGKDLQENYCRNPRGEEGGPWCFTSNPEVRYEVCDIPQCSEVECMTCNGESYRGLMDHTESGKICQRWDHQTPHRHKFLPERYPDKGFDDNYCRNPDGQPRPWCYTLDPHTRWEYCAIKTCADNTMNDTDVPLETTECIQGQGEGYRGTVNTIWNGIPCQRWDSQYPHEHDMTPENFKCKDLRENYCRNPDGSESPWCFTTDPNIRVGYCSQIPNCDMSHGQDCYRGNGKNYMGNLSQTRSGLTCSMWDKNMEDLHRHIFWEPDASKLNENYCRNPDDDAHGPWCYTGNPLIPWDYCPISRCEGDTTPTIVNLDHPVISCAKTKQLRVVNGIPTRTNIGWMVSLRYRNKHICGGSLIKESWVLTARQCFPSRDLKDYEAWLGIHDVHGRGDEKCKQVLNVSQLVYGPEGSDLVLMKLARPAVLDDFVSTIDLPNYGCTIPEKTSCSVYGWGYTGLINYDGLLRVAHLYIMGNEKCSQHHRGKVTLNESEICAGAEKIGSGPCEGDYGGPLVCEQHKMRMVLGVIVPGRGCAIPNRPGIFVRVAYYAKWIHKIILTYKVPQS
Where no end group is shown, it is not given here. The star is where a group is joined. FITC = O=C1OC2(c3ccc(O)cc3Oc3cc(O)ccc32)c2ccc(NC(=S)*)cc21
Observation Type: Kd

Binder	Result
{FITC}-HRGLKWEIVPWSGCG (the peptide of bacteria clone 1, synthesized free of bacteria; The methods say in general that FITC was labeled at the N-terminal of the peptides; also called HGP-1; FITC-labeled HGP-1; source: synthetic peptide (Shanghai Bootech Bioscience & Technology Co., Ltd.)) [HGF binding peptide-1, soluble synthetic peptide]	1730 nM
